Just for reference, the supplement of paper PMC6555819 is where these values come from.

Tested on: RARa:RXR (NR concentration 270 nM, RXRa partner concentration 90 nM)
Assay: PBM binding z-score (relative to random genomic background probes); higher = stronger binding; sequences stand for … in GC…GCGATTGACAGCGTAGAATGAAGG
Categorized via PBM binding z-score: low bracket = under 0.7, middle bracket = from 0.7 up to 2, high bracket = 2 and over

SEQUENCE INPUT: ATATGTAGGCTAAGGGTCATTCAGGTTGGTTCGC
CATEGORY: high bracket
--
SEQUENCE INPUT: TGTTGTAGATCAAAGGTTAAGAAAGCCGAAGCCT
CATEGORY: high bracket
--
SEQUENCE INPUT: TCATATAGATAAAGGTGAAAGTCGAACGATATGA
CATEGORY: middle bracket
--
SEQUENCE INPUT: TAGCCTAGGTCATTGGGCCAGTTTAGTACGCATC
CATEGORY: high bracket
--
SEQUENCE INPUT: TCTAGCAGGCAAGAGGGTCACTCAAGAGGTACGG
CATEGORY: high bracket
--
SEQUENCE INPUT: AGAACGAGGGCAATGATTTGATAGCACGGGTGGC
CATEGORY: low bracket
--
SEQUENCE INPUT: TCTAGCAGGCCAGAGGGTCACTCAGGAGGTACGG
CATEGORY: high bracket
--
SEQUENCE INPUT: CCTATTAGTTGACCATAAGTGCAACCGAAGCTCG
CATEGORY: middle bracket
--
SEQUENCE INPUT: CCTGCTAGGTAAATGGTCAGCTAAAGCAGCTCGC
CATEGORY: low bracket
--
SEQUENCE INPUT: TCTAGTTGGTCAAAGGTCCCACACTCGAAATGCG
CATEGORY: middle bracket
--
SEQUENCE INPUT: ACTAGCACGCCAAGGGTCACTCAAGATTAGTCCG
CATEGORY: high bracket
--
SEQUENCE INPUT: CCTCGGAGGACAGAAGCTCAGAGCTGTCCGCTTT
CATEGORY: low bracket
--
SEQUENCE INPUT: AGAATGAGGTTATTAAGACCAGGGAATTGCGGTC
CATEGORY: middle bracket
--
SEQUENCE INPUT: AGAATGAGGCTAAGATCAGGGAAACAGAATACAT
CATEGORY: low bracket
--
SEQUENCE INPUT: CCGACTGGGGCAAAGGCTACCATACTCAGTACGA
CATEGORY: low bracket
--
SEQUENCE INPUT: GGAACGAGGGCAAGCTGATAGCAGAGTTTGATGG
CATEGORY: low bracket
--
SEQUENCE INPUT: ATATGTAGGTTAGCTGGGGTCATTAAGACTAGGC
CATEGORY: high bracket
--
SEQUENCE INPUT: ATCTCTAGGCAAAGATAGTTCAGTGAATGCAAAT
CATEGORY: low bracket
--
SEQUENCE INPUT: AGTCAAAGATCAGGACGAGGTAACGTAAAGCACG
CATEGORY: low bracket
--
SEQUENCE INPUT: CCGACTGGGGCGAAGGTTACCATACTCAGTACGA
CATEGORY: middle bracket
--
SEQUENCE INPUT: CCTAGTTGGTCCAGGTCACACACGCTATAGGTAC
CATEGORY: high bracket
--
SEQUENCE INPUT: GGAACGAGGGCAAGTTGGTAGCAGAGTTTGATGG
CATEGORY: low bracket
--
SEQUENCE INPUT: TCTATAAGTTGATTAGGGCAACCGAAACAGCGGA
CATEGORY: low bracket
--
SEQUENCE INPUT: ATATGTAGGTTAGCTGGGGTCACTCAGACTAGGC
CATEGORY: high bracket
--
SEQUENCE INPUT: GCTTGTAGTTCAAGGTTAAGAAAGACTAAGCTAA
CATEGORY: middle bracket
--
SEQUENCE INPUT: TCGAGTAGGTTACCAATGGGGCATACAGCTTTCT
CATEGORY: low bracket
--
SEQUENCE INPUT: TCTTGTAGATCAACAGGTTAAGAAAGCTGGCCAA
CATEGORY: middle bracket
--
SEQUENCE INPUT: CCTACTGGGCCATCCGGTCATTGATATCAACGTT
CATEGORY: low bracket
--
SEQUENCE INPUT: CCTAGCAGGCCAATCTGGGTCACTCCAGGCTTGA
CATEGORY: middle bracket
--
SEQUENCE INPUT: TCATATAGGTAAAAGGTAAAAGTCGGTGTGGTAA
CATEGORY: middle bracket
--
SEQUENCE INPUT: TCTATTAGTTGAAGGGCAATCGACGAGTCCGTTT
CATEGORY: low bracket
--
SEQUENCE INPUT: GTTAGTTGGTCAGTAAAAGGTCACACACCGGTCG
CATEGORY: high bracket
--
SEQUENCE INPUT: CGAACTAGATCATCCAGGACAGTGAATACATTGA
CATEGORY: low bracket
--
SEQUENCE INPUT: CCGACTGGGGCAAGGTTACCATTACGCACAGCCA
CATEGORY: middle bracket
--
SEQUENCE INPUT: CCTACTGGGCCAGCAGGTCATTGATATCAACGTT
CATEGORY: middle bracket
--
SEQUENCE INPUT: TTACCAAGGTGAAGGTAGTTGATCCCTCTGTAGA
CATEGORY: low bracket
--
SEQUENCE INPUT: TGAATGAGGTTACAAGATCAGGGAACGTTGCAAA
CATEGORY: middle bracket
--
SEQUENCE INPUT: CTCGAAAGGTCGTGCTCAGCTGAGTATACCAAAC
CATEGORY: high bracket
--
SEQUENCE INPUT: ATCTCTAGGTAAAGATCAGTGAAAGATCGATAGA
CATEGORY: low bracket
--
SEQUENCE INPUT: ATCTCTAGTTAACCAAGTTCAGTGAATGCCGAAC
CATEGORY: middle bracket
--
SEQUENCE INPUT: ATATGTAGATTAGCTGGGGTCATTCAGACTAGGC
CATEGORY: high bracket

====

Test system: VDR:RXRa (NR concentration 270 nM, RXRa partner concentration 90 nM)
Experiment: PBM binding z-score (relative to random genomic background probes); higher = stronger binding; sequences stand for … in GC…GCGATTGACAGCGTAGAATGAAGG
Measured PBM binding z-score determines class: bucket A = under 0.2, bucket B = from 0.2 up to 1, bucket C = 1 and over

SEQUENCE INPUT: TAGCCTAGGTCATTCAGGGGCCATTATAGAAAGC
CATEGORY: bucket C

SEQUENCE INPUT: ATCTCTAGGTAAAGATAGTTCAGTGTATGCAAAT
CATEGORY: bucket B

SEQUENCE INPUT: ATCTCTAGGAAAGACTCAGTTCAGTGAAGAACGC
CATEGORY: bucket B

SEQUENCE INPUT: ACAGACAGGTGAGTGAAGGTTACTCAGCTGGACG
CATEGORY: bucket A

SEQUENCE INPUT: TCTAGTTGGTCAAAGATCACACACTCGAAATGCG
CATEGORY: bucket C

SEQUENCE INPUT: CGCCCAAGGTCAGAGAGGTCAGTGAATGCCGAGT
CATEGORY: bucket C

SEQUENCE INPUT: GCTTGCGGGTCAAAGGTTATAGCATGAATAGAAT
CATEGORY: bucket C

SEQUENCE INPUT: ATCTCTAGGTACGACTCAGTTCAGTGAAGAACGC
CATEGORY: bucket C

SEQUENCE INPUT: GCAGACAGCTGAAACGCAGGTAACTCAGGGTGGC
CATEGORY: bucket A

SEQUENCE INPUT: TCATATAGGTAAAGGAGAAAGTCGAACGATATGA
CATEGORY: bucket B

SEQUENCE INPUT: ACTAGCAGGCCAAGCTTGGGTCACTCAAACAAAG
CATEGORY: bucket A

SEQUENCE INPUT: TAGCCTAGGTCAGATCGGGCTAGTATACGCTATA
CATEGORY: bucket B

SEQUENCE INPUT: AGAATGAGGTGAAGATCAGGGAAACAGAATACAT
CATEGORY: bucket A

SEQUENCE INPUT: TTACCAAGGTGAAAGGTCTTTGATGCACGCCTTG
CATEGORY: bucket B

SEQUENCE INPUT: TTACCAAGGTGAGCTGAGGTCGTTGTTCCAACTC
CATEGORY: bucket C

SEQUENCE INPUT: GCTATTAGTTAAAAGGGCAACCGAATGATTCTCG
CATEGORY: bucket A

SEQUENCE INPUT: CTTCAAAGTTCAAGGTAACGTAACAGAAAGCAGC
CATEGORY: bucket C

SEQUENCE INPUT: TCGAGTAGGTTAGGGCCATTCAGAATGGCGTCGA
CATEGORY: bucket A
